Target: T1, murine pro-myostatin (mouse, UniProt O08689 25-376, biotinylated (in the SPR assay))
T1 construct: also called proGDF8 (mouse); mouse pro-myostatin
Experiment: SPR Biacore 8K, biotin-antigen captured
pKd: −log10 of the molar value.
Quick list: pKd per entry.
measured_property: pKd

- Ab127 (antibody, human IgG4 S228P, kappa, V domains shown) VH: EVQLVESGGGLVQPGGSLRLSCTASGFTFGSYPMDWVRQAPGKGLEWVSYISGRGDVTYYADSVKGRFTISRDNAKNTLYLQMNSLRAEDTAVYYCAKVQSPSELLWFGELLPVDYWGQGTLVTVSS VL: DIQMTQSPSSLSASVGDRVTITCQASQVIKTWLNWYQQKPGKAPKLLIYDASNLQRGVPSRFSGSGSGTDFTFTISSLQPEDIATYYCQQSASTPITFGGGTKVEIKR: 9.49
- Ab102 (antibody, human IgG4 S228P, kappa, V domains shown) VH: EVQLVESGGGLVQPGGSLRLSCAASGFTFTSYGMSWVRQAPGKGLELVASITGSGGETYYPDSVKGRFTISRDNAKNSLYLQMNSLRAEDTAVYYCARDLLVRFLEWSHYYGMDVWGQGTTVTVSS VL: DIVMTQSPLSLPVTPGEPASISCRSSQSLLHSSGHNFLHWYLQKPGQSPQLLIYETSNRAPGIPDRFSGSGSGTDFTLKISRVEAEDVGVYYCMQATQFPRPFGGGTKVEIKR: 10.09
